Could you please report measured relative viability for the items listed next?
System: NCI-H2405
Test: relative viability (nuclei count vs DMSO), 5 days (fraction); higher = more cells survive
Conditions: first compound 0.8 µM
Give bare numbers.

{"columns": ["COMPOUND", "relative viability"],
 "data": [
  ["COc1nc(C)cnc1NS(=O)(=O)c1cccnc1-c1ccc(-c2nnco2)cc1 [Zibotentan] + Cc1nc(Nc2ncc(C(=O)Nc3c(C)cccc3Cl)s2)cc(N2CCN(CCO)CC2)n1 [Dasatinib] (partner 0.075 µM)", 0.218]
]}

Switching to the query record.
// sample COc1nc(C)cnc1NS(=O)(=O)c1cccnc1-c1ccc(-c2nnco2)cc1 [Zibotentan] + CC(C)C[C@H](NC(=O)[C@H](Cc1ccccc1)NC(=O)c1cnccn1)B(O)O [Bortezomib] (partner 0.002 µM) , its relative viability was 0.991
